Experiment: clinical
Details: both, human, in vivo
attribute measured: Cmax (nM)
All answers are understood in nM, so give the number only.

| sample smiles | Cmax [nM] |
| --- | --- |
| CC(C)c1nc(N(C)S(C)(=O)=O)nc(-c2ccc(F)cc2)c1/C=C/[C@@H](O)C[C@@H](O)CC(=O)O | 7.9 |

Next compound, Cmax to be filled in.
What measured Cmax goes with CN(C)C(=N)N=C(N)N ? 540

* * *

Assay: clinical
Conditions: both, human, in vivo, po
attribute measured: AUC(0-t) (µM·h)
I only need the number, in µM·h, no unit after it.

Known AUC(0-t) results, listed for orientation:
| sample smiles | AUC(0-t), µM·h |
| --- | --- |
| Cc1ncc2n1-c1ccc(Cl)cc1C(c1ccccc1F)=NC2 | 0.062 |
| CC(C)c1nc(N(C)S(C)(=O)=O)nc(-c2ccc(F)cc2)c1/C=C/[C@@H](O)C[C@@H](O)CC(=O)O | 0.059 |

As a next step, examine the compound that follows.
I have this compound here, CN(C)C(=N)N=C(N)N , and I need its recorded AUC(0-t). 4.7

* * *

Target: P-gp (Homo sapiens, UniProt P08183)
Sequence (P08183 whole entry): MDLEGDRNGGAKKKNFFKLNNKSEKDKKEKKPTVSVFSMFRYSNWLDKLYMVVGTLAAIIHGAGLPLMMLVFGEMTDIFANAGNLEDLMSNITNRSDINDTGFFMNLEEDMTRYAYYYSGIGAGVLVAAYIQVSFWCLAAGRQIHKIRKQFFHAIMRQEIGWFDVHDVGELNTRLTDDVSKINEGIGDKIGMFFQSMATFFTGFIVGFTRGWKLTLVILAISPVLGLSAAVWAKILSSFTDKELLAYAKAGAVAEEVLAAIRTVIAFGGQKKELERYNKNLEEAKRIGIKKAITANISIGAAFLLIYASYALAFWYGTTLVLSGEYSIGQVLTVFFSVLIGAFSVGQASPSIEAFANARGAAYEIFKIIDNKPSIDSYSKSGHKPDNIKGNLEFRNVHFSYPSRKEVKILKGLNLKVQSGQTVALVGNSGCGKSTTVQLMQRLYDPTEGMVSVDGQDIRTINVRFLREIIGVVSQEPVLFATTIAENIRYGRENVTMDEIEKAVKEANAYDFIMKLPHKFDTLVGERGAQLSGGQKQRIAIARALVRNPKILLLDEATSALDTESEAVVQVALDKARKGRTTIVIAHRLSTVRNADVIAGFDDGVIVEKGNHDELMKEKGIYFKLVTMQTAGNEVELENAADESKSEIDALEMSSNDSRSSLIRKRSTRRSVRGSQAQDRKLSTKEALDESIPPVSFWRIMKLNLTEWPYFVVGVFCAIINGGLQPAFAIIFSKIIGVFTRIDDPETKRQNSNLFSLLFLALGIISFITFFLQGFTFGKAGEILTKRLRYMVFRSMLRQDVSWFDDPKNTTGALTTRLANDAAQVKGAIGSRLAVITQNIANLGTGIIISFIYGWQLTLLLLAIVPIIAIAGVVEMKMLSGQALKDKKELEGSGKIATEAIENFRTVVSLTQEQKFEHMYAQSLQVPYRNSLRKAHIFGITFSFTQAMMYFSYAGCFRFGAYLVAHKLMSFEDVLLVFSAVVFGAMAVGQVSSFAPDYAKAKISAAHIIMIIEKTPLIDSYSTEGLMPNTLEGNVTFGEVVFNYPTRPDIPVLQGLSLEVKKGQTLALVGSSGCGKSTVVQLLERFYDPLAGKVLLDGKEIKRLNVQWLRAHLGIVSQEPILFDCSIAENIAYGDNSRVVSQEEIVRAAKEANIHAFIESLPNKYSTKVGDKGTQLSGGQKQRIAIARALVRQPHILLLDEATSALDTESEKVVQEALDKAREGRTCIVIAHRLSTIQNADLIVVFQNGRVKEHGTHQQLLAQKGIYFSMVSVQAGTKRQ
Experiment: Transporter inhibition assay, P-gp
Type: biochemical
attribute measured: inhibition at 100 μM

| compound | value |
| --- | --- |
| COc1ccc2cc3[n+](cc2c1OC)CCc1cc2c(cc1-3)OCO2 [Berberine, berberine chloride] | < 20% |

Let's switch to this compound now.
Reported inhibition at 100 μM, compound CN1CCc2cc3c(cc2C1O)OCO3 (centres unmarked) [Hydrastinine, hydrastinine chloride monohydrate] : ____ < 20%

* * *

Target: OCT2 (Homo sapiens, UniProt O15244)
Sequence (O15244 1-555): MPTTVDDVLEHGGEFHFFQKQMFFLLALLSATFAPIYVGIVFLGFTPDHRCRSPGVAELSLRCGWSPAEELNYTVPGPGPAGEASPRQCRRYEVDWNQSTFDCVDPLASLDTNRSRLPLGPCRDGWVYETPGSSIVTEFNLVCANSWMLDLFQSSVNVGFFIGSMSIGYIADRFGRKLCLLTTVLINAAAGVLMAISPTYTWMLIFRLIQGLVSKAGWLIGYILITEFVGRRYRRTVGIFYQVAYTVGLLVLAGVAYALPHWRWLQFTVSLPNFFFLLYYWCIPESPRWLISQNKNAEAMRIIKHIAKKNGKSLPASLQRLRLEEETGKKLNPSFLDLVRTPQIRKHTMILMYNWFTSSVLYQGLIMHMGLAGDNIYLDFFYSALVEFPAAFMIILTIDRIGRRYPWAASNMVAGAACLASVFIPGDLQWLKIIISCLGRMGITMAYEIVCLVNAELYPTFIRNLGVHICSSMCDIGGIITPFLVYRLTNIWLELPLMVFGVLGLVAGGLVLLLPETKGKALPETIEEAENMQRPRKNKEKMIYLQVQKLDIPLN
Assay: Transporter inhibition assay, OCT2
attribute measured: IC50 (µM)
The reply should contain only the number, in µM.

| compound | IC50, µM |
| --- | --- |
| CN1CCc2cc3c(cc2C1O)OCO3 (centres unmarked) [Hydrastinine, hydrastinine chloride monohydrate] | 95 |

Give the reported IC50 for COc1ccc2cc3[n+](cc2c1OC)CCc1cc2c(cc1-3)OCO2 [Berberine, berberine chloride] (system: OCT2 (Homo sapiens, UniProt O15244)). 45
